The following substances are listed with their measured log10 of EC50 values.
molecular target: human GcgR (Homo sapiens); assay: Functional cAMP activity in the presence of 1% HSA; format: cell-based; conditions: read-out: cAMP Rel EC50, hGcgR
Sequence (P47871 26-477): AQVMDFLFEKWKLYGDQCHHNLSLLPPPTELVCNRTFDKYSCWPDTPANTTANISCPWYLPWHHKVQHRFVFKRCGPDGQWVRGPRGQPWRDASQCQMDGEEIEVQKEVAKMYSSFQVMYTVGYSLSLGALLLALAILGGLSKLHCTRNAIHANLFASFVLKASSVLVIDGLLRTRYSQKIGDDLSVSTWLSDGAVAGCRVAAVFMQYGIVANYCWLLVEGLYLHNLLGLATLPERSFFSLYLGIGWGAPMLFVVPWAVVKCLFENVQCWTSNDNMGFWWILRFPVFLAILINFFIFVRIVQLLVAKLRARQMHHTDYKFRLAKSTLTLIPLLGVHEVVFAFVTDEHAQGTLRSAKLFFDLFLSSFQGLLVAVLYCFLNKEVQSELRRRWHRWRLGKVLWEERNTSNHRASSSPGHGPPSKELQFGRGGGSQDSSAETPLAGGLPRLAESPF
Starred links: 1 amine or outer side, 2 acyl side, 3 side chain; linkers in the order of their positions; H or OH if unused. Non-standard residues stand in square brackets, D forms with d. Groups on a side chain read outwards from the residue. No end group written: not given here. *: point of attachment. C20 diacid = O=C(O)CCCCCCCCCCCCCCCCCCC(=O)*; C18 diacid = O=C(O)CCCCCCCCCCCCCCCCC(=O)*; αMePhe(2-F) = C[C@](N)(Cc1ccccc1F)C(=O)O; γGlu = O=C(O)[C@H](CCC(=O)[*:2])N[*:1]; αMe4Pal = C[C@](N)(Cc1ccncc1)C(=O)O; 4Pal = N[C@@H](Cc1ccncc1)C(=O)O; αMeL = CC(C)C[C@](C)(N)C(=O)O; αMeS = C[C@](N)(CO)C(=O)O; Orn = NCCC[C@H](N)C(=O)O; AEEA = NCCOCCOCC(=O)O; Aib = CC(C)(N)C(=O)O
# values: log10(EC50), units nM

Guide cases for log10 of EC50, answers given:
1. Y[Aib]QGTFTSD[4Pal]SQ[αMeL]LDKK([AEEA-γGlu-C18 diacid])AQ[Aib]AFIEYLLE[dA]GPSSGAPPPSGS-NH2 [Example 820] :: 3.10
2. H-Y[Aib]QGTFTSD[4Pal]S[Orn][αMeL]LDKK([γGlu-γGlu-C18 diacid])AQ[αMe4Pal]AFIEYLIAGGPSSGEPPPSGTE-NH2 [Example 980] :: 2.38
3. H-Y[Aib]QGTFTSDFSK[αMeL]LDKK([AEEA-γGlu-C18 diacid])AQ[Aib]AFIEYLLEGGPSSGAPPPSGS-NH2 [Example 141] :: 2.94
4. H-Y[Aib]QGTFTSDFS[Orn][αMeL]LDKK([AEEA-AEEA-γGlu-C18 diacid])AQ[Aib]AFIEYLLE[Aib]GPSSGEPPPSGS-NH2 [Example 166] :: 2.86
5. H-Y[Aib]QGTFTSDFS[Orn][αMeL]LDKK([AEEA-AEEA-γGlu-C18 diacid])AQ[Aib]AFIEWLLEGGHSSGAPPPSGE-NH2 [Example 169] :: 2.64

response.value for H-Y[Aib]QGT[αMePhe(2-F)]TSD[4Pal][αMeS]ILLD[Orn]K([γGlu-γGlu-C18 diacid])AQ[Aib][Orn]FI[dE]YLIEGGPSSGEPPPEGSEE-NH2 [Example 603] (field: log10 of EC50) = 2.62

response.value for H-Y[Aib]QGTFTSDYSI[αMeL]LDKIAAK([AEEA-AEEA-γGlu-C20 diacid])[Orn]FVQYLIAGGPSSGEPPPSEG-NH2 [Example 308] (field: log10 of EC50) = 3.69
